Tested on: Escherichia coli TOP10
Assay: shrunken log2 fold change of peptide-encoding DNA abundance (4.5 h post-induction vs induction); higher = less antimicrobial activity (less host growth inhibition)
Conditions: time post-induction: 4.5 h; library: site-saturation at positions 5, 18, 19, 20
# shrunken log2 fold change values compiled below
Please respond with just the number, no unit label.

Incoming: // map RRIRIRPPRLPRPRPRPLGWPRP to recorded shrunken log2 fold change (system: Escherichia coli TOP10)
Outgoing: 0.339

Incoming: // map RRIRCRPPRLPRPRPRPGPDPRP to recorded shrunken log2 fold change (system: Escherichia coli TOP10)
Outgoing: 0.359

Incoming: // map RRIRGRPPRLPRPRPRPLQWPRP to recorded shrunken log2 fold change (system: Escherichia coli TOP10)
Outgoing: 0.534

Incoming: // map RRIRQRPPRLPRPRPRPLAWPRP to recorded shrunken log2 fold change (system: Escherichia coli TOP10)
Outgoing: 0.15

Incoming: // map RRIRCRPPRLPRPRPRPIQLPRP to recorded shrunken log2 fold change (system: Escherichia coli TOP10)
Outgoing: -0.0847

* * *

Test system: Escherichia coli TOP10
Assay: shrunken log2 fold change of peptide-encoding DNA abundance (4.5 h post-induction vs induction); higher = less antimicrobial activity (less host growth inhibition)
Settings: time post-induction: 4.5 h; library: site-saturation at positions 5, 18, 19, 20
# shrunken log2 fold change values compiled below
Please respond with just the number, no unit label.

Incoming: Request the reported shrunken log2 fold change associated with RRIRSRPPRLPRPRPRPYIPPRP
Outgoing: -1.28

Incoming: Request the reported shrunken log2 fold change associated with RRIRMRPPRLPRPRPRPSYFPRP
Outgoing: -0.293

Incoming: Request the reported shrunken log2 fold change associated with RRIRPRPPRLPRPRPRPWDPPRP
Outgoing: -0.0945

Incoming: Request the reported shrunken log2 fold change associated with RRIRKRPPRLPRPRPRPFNWPRP
Outgoing: 0.00115

Incoming: Request the reported shrunken log2 fold change associated with RRIRPRPPRLPRPRPRPMAHPRP
Outgoing: -0.165

Incoming: Request the reported shrunken log2 fold change associated with RRIRSRPPRLPRPRPRPEKPPRP
Outgoing: 0.014

Incoming: Request the reported shrunken log2 fold change associated with RRIRNRPPRLPRPRPRPHCTPRP
Outgoing: -0.0475

Incoming: Request the reported shrunken log2 fold change associated with RRIRFRPPRLPRPRPRPLNLPRP
Outgoing: -0.542

Others:
Incoming: Request the reported shrunken log2 fold change associated with RRIRARPPRLPRPRPRPINRPRP
Outgoing: 0.0108

Incoming: Request the reported shrunken log2 fold change associated with RRIRYRPPRLPRPRPRPNEPPRP
Outgoing: 0.00196

Incoming: Request the reported shrunken log2 fold change associated with RRIRERPPRLPRPRPRPQKGPRP
Outgoing: -0.213

* * *

System: Escherichia coli TOP10
Test: shrunken log2 fold change of peptide-encoding DNA abundance (4.5 h post-induction vs induction); higher = less antimicrobial activity (less host growth inhibition)
Conditions: time post-induction: 4.5 h; library: site-saturation at positions 5, 18, 19, 20
# shrunken log2 fold change values compiled below
Please respond with just the number, no unit label.

Examples from the recorded data:
Incoming: // map RRIRDRPPRLPRPRPRPLSDPRP to recorded shrunken log2 fold change (system: Escherichia coli TOP10)
Outgoing: 0.125

Incoming: // map RRIRLRPPRLPRPRPRPSINPRP to recorded shrunken log2 fold change (system: Escherichia coli TOP10)
Outgoing: -0.32

Incoming: // map RRIRVRPPRLPRPRPRPIHAPRP to recorded shrunken log2 fold change (system: Escherichia coli TOP10)
Outgoing: 0.098

Incoming: // map RRIRHRPPRLPRPRPRPKVVPRP to recorded shrunken log2 fold change (system: Escherichia coli TOP10)
Outgoing: -0.00398

Incoming: // map RRIRVRPPRLPRPRPRPTLSPRP to recorded shrunken log2 fold change (system: Escherichia coli TOP10)
Outgoing: -0.0525

Others:
Incoming: // map RRIRWRPPRLPRPRPRPMPHPRP to recorded shrunken log2 fold change (system: Escherichia coli TOP10)
Outgoing: 0.323

Incoming: // map RRIRTRPPRLPRPRPRPSGRPRP to recorded shrunken log2 fold change (system: Escherichia coli TOP10)
Outgoing: 0.0348

Incoming: // map RRIRWRPPRLPRPRPRPDAEPRP to recorded shrunken log2 fold change (system: Escherichia coli TOP10)
Outgoing: 1.89

Incoming: // map RRIRYRPPRLPRPRPRPIFWPRP to recorded shrunken log2 fold change (system: Escherichia coli TOP10)
Outgoing: 0.0187

Incoming: // map RRIRQRPPRLPRPRPRPPISPRP to recorded shrunken log2 fold change (system: Escherichia coli TOP10)
Outgoing: -0.187

Incoming: // map RRIRLRPPRLPRPRPRPAHSPRP to recorded shrunken log2 fold change (system: Escherichia coli TOP10)
Outgoing: 0.0693

Incoming: // map RRIRWRPPRLPRPRPRPVTHPRP to recorded shrunken log2 fold change (system: Escherichia coli TOP10)
Outgoing: -0.0273

Incoming: // map RRIRTRPPRLPRPRPRPCSNPRP to recorded shrunken log2 fold change (system: Escherichia coli TOP10)
Outgoing: -0.0243

Incoming: // map RRIRDRPPRLPRPRPRPLWAPRP to recorded shrunken log2 fold change (system: Escherichia coli TOP10)
Outgoing: 0.0876

Incoming: // map RRIRFRPPRLPRPRPRPTSKPRP to recorded shrunken log2 fold change (system: Escherichia coli TOP10)
Outgoing: -0.191

Incoming: // map RRIRYRPPRLPRPRPRPMYIPRP to recorded shrunken log2 fold change (system: Escherichia coli TOP10)
Outgoing: -0.0194

Incoming: // map RRIRLRPPRLPRPRPRPEENPRP to recorded shrunken log2 fold change (system: Escherichia coli TOP10)
Outgoing: -0.00256

Incoming: // map RRIRSRPPRLPRPRPRPVCSPRP to recorded shrunken log2 fold change (system: Escherichia coli TOP10)
Outgoing: 0.0822

Incoming: // map RRIRMRPPRLPRPRPRPCCGPRP to recorded shrunken log2 fold change (system: Escherichia coli TOP10)
Outgoing: 0.215

Incoming: // map RRIRERPPRLPRPRPRPISRPRP to recorded shrunken log2 fold change (system: Escherichia coli TOP10)
Outgoing: -0.0122

Incoming: // map RRIRQRPPRLPRPRPRPSIWPRP to recorded shrunken log2 fold change (system: Escherichia coli TOP10)
Outgoing: -0.0257

Incoming: // map RRIRKRPPRLPRPRPRPVRAPRP to recorded shrunken log2 fold change (system: Escherichia coli TOP10)
Outgoing: 1.27

Incoming: // map RRIRRRPPRLPRPRPRPEGLPRP to recorded shrunken log2 fold change (system: Escherichia coli TOP10)
Outgoing: 2.59

Incoming: // map RRIRQRPPRLPRPRPRPEIKPRP to recorded shrunken log2 fold change (system: Escherichia coli TOP10)
Outgoing: -0.342

Incoming: // map RRIRWRPPRLPRPRPRPAIVPRP to recorded shrunken log2 fold change (system: Escherichia coli TOP10)
Outgoing: 0.144

Incoming: // map RRIRNRPPRLPRPRPRPNSRPRP to recorded shrunken log2 fold change (system: Escherichia coli TOP10)
Outgoing: -0.266

Incoming: // map RRIRPRPPRLPRPRPRPEWFPRP to recorded shrunken log2 fold change (system: Escherichia coli TOP10)
Outgoing: 0.341

Incoming: // map RRIRVRPPRLPRPRPRPQMAPRP to recorded shrunken log2 fold change (system: Escherichia coli TOP10)
Outgoing: -0.302

Incoming: // map RRIRHRPPRLPRPRPRPQWYPRP to recorded shrunken log2 fold change (system: Escherichia coli TOP10)
Outgoing: -0.0605

Incoming: // map RRIRPRPPRLPRPRPRPYDLPRP to recorded shrunken log2 fold change (system: Escherichia coli TOP10)
Outgoing: -0.293

* * *

# shrunken log2 fold change values compiled below
Test system: Escherichia coli TOP10;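 further: peptides expressed intracellularly from a pBAD plasmid library in pooled LB shake-flask culture, induced with 0.3% L-arabinose, DNA abundance read by NGS, three biological replicates, DESeq2 with apeglm shrinkage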
Assay: shrunken log2 fold change of peptide-encoding DNA abundance (4.5 h post-induction vs induction); higher = less antimicrobial activity (less host growth inhibition)
Details: time post-induction: 4.5 h; library: site-saturation at positions 5, 18, 19, 20
Please respond with just the number, no unit label.

Examples from the recorded data:
Incoming: Request the reported shrunken log2 fold change associated with RRIRGRPPRLPRPRPRPEWFPRP
Outgoing: 0.683

Incoming: Request the reported shrunken log2 fold change associated with RRIRIRPPRLPRPRPRPYELPRP
Outgoing: -0.0687

Incoming: Request the reported shrunken log2 fold change associated with RRIRYRPPRLPRPRPRPPCYPRP
Outgoing: -0.378

Incoming: Request the reported shrunken log2 fold change associated with RRIRQRPPRLPRPRPRPFQIPRP
Outgoing: 0.0399

Others:
Incoming: Request the reported shrunken log2 fold change associated with RRIRFRPPRLPRPRPRPNKSPRP
Outgoing: -0.67

Incoming: Request the reported shrunken log2 fold change associated with RRIRLRPPRLPRPRPRPMSAPRP
Outgoing: 0.344

Incoming: Request the reported shrunken log2 fold change associated with RRIRPRPPRLPRPRPRPFHKPRP
Outgoing: -0.453

Incoming: Request the reported shrunken log2 fold change associated with RRIRCRPPRLPRPRPRPCIKPRP
Outgoing: -0.426

Incoming: Request the reported shrunken log2 fold change associated with RRIRFRPPRLPRPRPRPDWRPRP
Outgoing: 0.0737

Incoming: Request the reported shrunken log2 fold change associated with RRIRPRPPRLPRPRPRPENMPRP
Outgoing: -0.395

Incoming: Request the reported shrunken log2 fold change associated with RRIRGRPPRLPRPRPRPKYAPRP
Outgoing: 0.501

Data origin: the supplement of paper PMC9112550
